Examples of sequences with documented 15 μM inhibition (%) follow.
target: HLA-A0201 (Homo sapiens, UniProt P04439, D140Y/D185E/D98H/E176V/E277Q/G131W/G231S/I119V/I121R/I166T/I218V/L300P/L318F/N151K/N90K/P208A/P217A/Q86G/Q94H/R138H/R169H/T345S); experiment: Competitive peptide binding assay, HLA-A0201 transfected HMy2.CIR cells; conditions: HLA-A0201; 15 μM unlabeled peptide, reference peptide FLPSDK(FITC)FPSV 300 nM, 24 h, 4 °C
Write the number in % without appending the unit.

[[record]]
construct_sequence = "FLFLTWICLL [Epitope B4, M protein 26-35]"
units_of_measure = "%"
readout_number = 20.70


The reported 15 μM inhibition (%) of the sequence LLLDRLNQL [Epitope C1, N protein 222-230] was 10.30

The reported 15 μM inhibition (%) of the sequence NMLRIMASL [Epitope R13, RdRp protein 628-636] was 28.90

The reported 15 μM inhibition (%) of the sequence YYVGYLQPR [Epitope D80, S protein 265-273] was 5.25

----------
Molecular target: HLA-A1101 (Homo sapiens, UniProt P04439, A114D/D185E/E176A/F33Y/L180Q/S129P/T187R)
Experiment: Competitive peptide binding assay, HLA-A1101 transfected HMy2.CIR cells
Conditions: 15 μM unlabeled peptide, reference peptide YVNVNK(FITC)GLK 300 nM, 24 h, 4 °C
Source text: The HMy2.CIR cell line was purchased (Zhongqiao Xinzhou Biotech, Shanghai) and maintained in complete IMDM with 10% FCS and 1% penicillin/streptomycin. […] High-expressing cells were then sorted using a fluorescence-activated cell sorter (FACS, BD FACSAria II SORP), followed by pure culture and gene sequencing analyses. […]
Examples of sequences with documented 15 μM inhibition (%) follow.
Write the number in % without appending the unit.

[[record]]
construct_sequence = "NIVNVSLVK [Epitope A12, E protein 45-53]"
assayed_target = "HLA-A1101 (Homo sapiens, UniProt P04439, A114D/D185E/E176A/F33Y/L180Q/S129P/T187R)"
outcome_measure = "15 μM inhibition (%)"
units_of_measure = "%"
readout_number = 15.00

[[record]]
construct_sequence = "GVYYHKNNK [Epitope D50, S protein 142-150]"
assayed_target = "HLA-A1101 (Homo sapiens, UniProt P04439, A114D/D185E/E176A/F33Y/L180Q/S129P/T187R)"
outcome_measure = "15 μM inhibition (%)"
units_of_measure = "%"
readout_number = 43.38

[[record]]
construct_sequence = "FIEDLLFNK [Epitope D42, S protein 817-825]"
assayed_target = "HLA-A1101 (Homo sapiens, UniProt P04439, A114D/D185E/E176A/F33Y/L180Q/S129P/T187R)"
outcome_measure = "15 μM inhibition (%)"
units_of_measure = "%"
readout_number = 47.80


The reported 15 μM inhibition (%) of the sequence GIYQTSNFR [Epitope D81, S protein 311-319] was 52.22

The reported 15 μM inhibition (%) of the sequence GVYFASTEK [Epitope D34, S protein 89-97] was 84.70

The reported 15 μM inhibition (%) of the sequence VVSTGYHFR [Epitope R38, RdRp protein 341-349] was 47.10

The reported 15 μM inhibition (%) of the sequence YYVGYLQPR [Epitope D80, S protein 265-273] was 5.55

The reported 15 μM inhibition (%) of the sequence ASGNLLLDK [Epitope R30, RdRp protein 383-391] was 84.90

The reported 15 μM inhibition (%) of the sequence CSLSHRFYR [Epitope R43, RdRp protein 646-654] was 89.20

The reported 15 μM inhibition (%) of the sequence VYYPDKVFR [Epitope D77, S protein 36-44] was 29.38

The reported 15 μM inhibition (%) of the sequence ASANLAATK [Epitope D47, S protein 1020-1028] was 67.72

----------
target: HLA-A1101 (Homo sapiens, UniProt P04439, A114D/D185E/E176A/F33Y/L180Q/S129P/T187R); assay: Competitive peptide binding assay, HLA-A1101 transfected HMy2.CIR cells; conditions: 15 μM unlabeled peptide, reference peptide YVNVNK(FITC)GLK 300 nM, 24 h, 4 °C
outcome measure: 15 μM inhibition (%)
Write the number in % without appending the unit.

Examples from the recorded data:
[[record]]
construct_sequence = "YSRYRIGNYK [Epitope B21, M protein 196-205]"
assayed_target = "HLA-A1101 (Homo sapiens, UniProt P04439, A114D/D185E/E176A/F33Y/L180Q/S129P/T187R)"
outcome_measure = "15 μM inhibition (%)"
readout_number = 29.38

[[record]]
construct_sequence = "ASVYAWNRK [Epitope D72, S protein 348-356]"
assayed_target = "HLA-A1101 (Homo sapiens, UniProt P04439, A114D/D185E/E176A/F33Y/L180Q/S129P/T187R)"
outcome_measure = "15 μM inhibition (%)"
readout_number = 76.05

[[record]]
construct_sequence = "GTSTDVVYR [Epitope R44, RdRp protein 25-33]"
assayed_target = "HLA-A1101 (Homo sapiens, UniProt P04439, A114D/D185E/E176A/F33Y/L180Q/S129P/T187R)"
outcome_measure = "15 μM inhibition (%)"
readout_number = 81.4

[[record]]
construct_sequence = "CSQHTMLVK [Epitope R42, RdRp protein 813-821]"
assayed_target = "HLA-A1101 (Homo sapiens, UniProt P04439, A114D/D185E/E176A/F33Y/L180Q/S129P/T187R)"
outcome_measure = "15 μM inhibition (%)"
readout_number = 75.20

[[record]]
construct_sequence = "VTYVPAQEK [Epitope D46, S protein 1065-1073]"
assayed_target = "HLA-A1101 (Homo sapiens, UniProt P04439, A114D/D185E/E176A/F33Y/L180Q/S129P/T187R)"
outcome_measure = "15 μM inhibition (%)"
readout_number = 52.22

[[record]]
construct_sequence = "CTLKSFTVEK [Epitope D40, S protein 301-310]"
assayed_target = "HLA-A1101 (Homo sapiens, UniProt P04439, A114D/D185E/E176A/F33Y/L180Q/S129P/T187R)"
outcome_measure = "15 μM inhibition (%)"
readout_number = 82.60


The reported 15 μM inhibition (%) of the sequence NSASFSTFK [Epitope D38, S protein 370-378] was 87.70

The reported 15 μM inhibition (%) of the sequence LSYFIASFR [Epitope B20, M protein 93-101] was 55.88

----------
molecular target: HLA-A3001 (Homo sapiens, UniProt P04439, D140H/D185E/E176W/F33S/G80R/H175R/K168Q/R138E/R41S); test: Competitive peptide binding assay, HLA-A3001 transfected HMy2.CIR cells; conditions: 15 μM unlabeled peptide, reference peptide ASRELK(FITC)VSY 300 nM, 24 h, 4 °C
The label depends only on 15 μM inhibition (%): TRUE if it is at least 60%, FALSE if it is smaller.

[[record]]
construct_sequence = "TSRTLSYYK [Epitope B38, M protein 172-180]"
class_label = "TRUE"

[[record]]
construct_sequence = "IVNSVLLFL [Epitope A26, E protein 13-21]"
class_label = "FALSE"

[[record]]
construct_sequence = "KNLREFVFK [Epitope D71, S protein 187-195]"
class_label = "TRUE"


Okay, next one:
Hi team, for ASVYAWNRK [Epitope D72, S protein 348-356] , is the recorded 15 μM inhibition (%) at or above 60%?
TRUE

----------
target: HLA-A2402 (Homo sapiens, UniProt P04439, D101N/D140Y/D185E/E176V/E190D/F33S/G103R/G107R/I119L/I121M/I306V/K335N/L105A/L180Q/L300P/N151K/N90K/Q86E/Q94H/R106L/R138H/R89G/T104I/T345S/V100E/W191G/Y123F); experiment: Competitive peptide binding assay, HLA-A2402 transfected HMy2.CIR cells; conditions: 5 μM unlabeled peptide, reference peptide EYLVSK(FITC)GVW 300 nM, 24 h, 4 °C
Would you mind sorting the entries by 5 μM inhibition (%) according to these classes? bucket A = under 6%, bucket B = from 6% up to 40%, bucket C = 40% and over

Recorded results for 8 sequences are shown here.
[[record]]
construct_sequence = "VSLVKPSFY [Epitope A19, E protein 49-57]"
class_label = "bucket A"

[[record]]
construct_sequence = "VNSVLLFLAF [Epitope A23, E protein 14-23]"
class_label = "bucket A"

[[record]]
construct_sequence = "NYNYLYRLF [Epitope D53, S protein 448-456]"
class_label = "bucket C"

[[record]]
construct_sequence = "TLIVNSVLLF [Epitope A22, E protein 11-20]"
class_label = "bucket B"

[[record]]
construct_sequence = "VFLLVTLAI [Epitope A20, E protein 25-33]"
class_label = "bucket A"

[[record]]
construct_sequence = "RFLYIIKLIF [Epitope B31, M protein 44-53]"
class_label = "bucket C"

[[record]]
construct_sequence = "FLAFVVFLL [Epitope A1, E protein 20-28]"
class_label = "bucket A"

[[record]]
construct_sequence = "IYKTPPIKDF [Epitope D62, S protein 788-797]"
class_label = "bucket B"


Please report the category associated with SYYSLLMPI [Epitope R47, RdRp protein 236-244] , nothing else.
bucket C

Please report the category associated with SYFIASFRLF [Epitope B26, M protein 94-103] , nothing else.
bucket C

Please report the category associated with LYIIKLIFLW [Epitope B28, M protein 46-55] , nothing else.
bucket B

Please report the category associated with CFTNVYADSF [Epitope D64, S protein 391-400] , nothing else.
bucket B

Please report the category associated with NVYADSFVIR [Epitope D79, S protein 394-403] , nothing else.
bucket A

Please report the category associated with VYAWNRKRI [Epitope D52, S protein 350-358] , nothing else.
bucket B

Please report the category associated with PYRVVVLSF [Epitope D55, S protein 507-515] , nothing else.
bucket C

Please report the category associated with LYNSASFSTF [Epitope D56, S protein 368-377] , nothing else.
bucket B
